Data provenance: ChEMBL document CHEMBL5308504

Biological target: Mitogen-activated protein kinase 1 (Homo sapiens) (UniProt P28482)
Sequence (P28482 whole entry): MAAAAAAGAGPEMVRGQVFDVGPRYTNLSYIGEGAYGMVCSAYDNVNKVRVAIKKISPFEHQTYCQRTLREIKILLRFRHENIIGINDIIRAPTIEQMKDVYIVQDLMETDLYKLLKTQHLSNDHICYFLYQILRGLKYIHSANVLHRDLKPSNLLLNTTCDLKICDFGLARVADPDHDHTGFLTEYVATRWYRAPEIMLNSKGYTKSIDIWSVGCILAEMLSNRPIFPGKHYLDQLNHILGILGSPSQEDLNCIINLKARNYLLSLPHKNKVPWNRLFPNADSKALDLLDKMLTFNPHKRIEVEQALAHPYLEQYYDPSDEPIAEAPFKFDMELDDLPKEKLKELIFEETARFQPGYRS
Conditions: Compound concentration 20.0 uM, Protein concentration 2.0 uM, Result type QC Liability
Description: Thermal Shift Assay. Domain: start/stop: M1-S360
Each record here notes measured ΔTm.
property: ΔTm (°C)

| compound | endpointUnit | endpointResult |
| --- | --- | --- |
| COc1cc(-c2nn([C@H]3CC[C@H](N4CCN(C(C)=O)CC4)CC3)c3ncnc(N)c23)ccc1NC(=O)c1cc2ccccc2n1C | °C | 3.54 |
| CC1CNCCc2c1nc1ccnn1c2N1CC(C(=O)N2CCC(C)(C)C2)C1 (configuration not stated) | °C | 0.2 |
| CCOC(=O)N1CCC(CN(Cc2ccc(Cl)cc2)Cc2ccc([N+](=O)[O-])s2)C1 (configuration not stated) | °C | 0.21 |
| O=C1COc2cc(C(=O)N(Cc3ccc(C(=O)Nc4ccncn4)cc3)C3CC3)ccc2N1 | °C | 0.31 |
| C[C@@]1(Cc2ccc(C#N)cc2)C(=O)N(c2cc(Cl)cc(Cl)c2)c2ncc(C(=O)NC3(c4nc(C5CCC5)no4)CC3)n21 | °C | 3.07 |
| C=CC(=O)Nc1ccc(C(=O)Nc2[nH]nc3c2CN(C(=O)N[C@H](CN(C)C)c2ccccc2)C3(C)C)cc1 | °C | 6.56 |
| Cc1cc(NC(=O)c2cccc(NC(=O)/C=C/CN(C)C)c2)ccc1Nc1nccc(-c2cccnc2)n1 | °C | 1.52 |
| CN1C(=O)Cc2ccc(-c3ccc(C[C@@H](C#N)NC(=O)[C@@H]4N[C@H]5CC[C@@H]4C5)c(F)c3)cc21 | °C | -0.2 |
| COc1cc(C(=O)NCCOCCOCCOCCC(=O)Nc2cccc3c2C(=O)N(C2CCC(=O)NC2=O)C3=O)ccc1Nc1ncc(C(F)(F)F)c(Oc2cccc3c2C(=O)CC3)n1 (configuration not stated) | °C | -2.51 |
| CC(=O)c1c(C)c2cnc(Nc3ccc(N4CCN(CCOCCOCCOCCNC(=O)COc5cccc6c5C(=O)N(C5CCC(=O)NC5=O)C6=O)CC4)cn3)nc2n(C2CCCC2)c1=O (configuration not stated) | °C | -1.16 |
| Cc1nc2cccnc2n2c(-c3cc([C@@]4(O)CCCOC4)ccc3Cl)nnc12 | °C | 0 |
| Cc1cc2ncnn2cc1Nc1ncc2c(n1)n(C1CCOCC1)c(=O)n2C | °C | 1.17 |
| CCCCCCCN(CCc1ccc(SC(C)(C)C(=O)O)cc1)C(=O)Nc1ccc(F)cc1F | °C | -0.08 |
| CCc1nc(C2CCC2)n2nc(-c3ccccc3)[nH]c(=O)c12 | °C | 0.11 |
| CN[C@@H](C)C(=O)N[C@H](C(=O)N1CCC[C@H]1C(=O)N[C@@H]1CCCc2ccccc21)C1CCCCC1 | °C | 0.48 |
| O=C1Nc2ccc(I)cc2/C1=C/c1cc(Br)c(O)c(Br)c1 | °C | 0.48 |
| CCOC(=O)C1Cc2ccccc2CN1C(=O)c1ccc(SC)s1 (configuration not stated) | °C | 0 |
